test system: HCT-15 colon; assay: NCI tumour cell line growth inhibition, 48 h; in the data active = GI50 below about 0.43 µM; inactive = the rest
I would appreciate it if you answered using one of these outcomes: TRUE = active, FALSE = inactive

Query: Recorded test call requested for COc1ccc2c(c1)/C(=C\c1c(Cl)[nH]c3ccc(OC)cc13)C(=O)N2
Response: FALSE

Query: Recorded test call requested for O=C1c2cc(Cl)ccc2-c2c1c1ccc([N+](=O)[O-])cc1c(=O)n2CCCBr
Response: FALSE

Query: Recorded test call requested for O=C1NC(=S)S/C1=C(/C=C(\CC(=O)c1ccccc1)c1ccc(Cl)cc1)c1ccccc1
Response: FALSE

Query: Recorded test call requested for CNCCn1c(=O)c2cc(OC)c(OC)cc2c2ccc3cc4c(cc3c21)OCO4
Response: TRUE

Query: Recorded test call requested for COc1cc(/C=C2\C(=O)Nc3ccc(N(C)C)cc32)cc(OC)c1OC
Response: FALSE

Query: Recorded test call requested for COC(=O)C1CCc2sc3ncnc(Nc4cn[nH]c4C(=O)Nc4ccc(CN5CCN(C)CC5)cc4)c3c21 (configuration not stated)
Response: TRUE

Query: Recorded test call requested for Cc1cc2c(cc1Cl)SC1=NN(C)C(N(C)C)N1S2(=O)=O (configuration not stated)
Response: FALSE

Query: Recorded test call requested for CCn1c(-c2nonc2N)nc2c(C#CC(C)(C)O)nc(OCCNC)cc21
Response: FALSE

Query: Recorded test call requested for CCCOc1ccc2nc(NC(=O)OC)[nH]c2c1
Response: TRUE

Query: Recorded test call requested for Cc1[nH]nc(C(=O)n2nc(N)c3ccccc32)c1[N+](=O)[O-]
Response: FALSE

Query: Recorded test call requested for Cc1sc2nc3c4ccccc4c(NCCCN(C)C)nn3c(=O)c2c1C
Response: FALSE

Query: Recorded test call requested for O=C(O)c1ccc2c(c1)CCCC(c1ccc(Cl)cc1Cl)=C2c1ccc(O[C@H]2CCN(CCCF)C2)cc1
Response: FALSE

* * *

tested on: A498 renal; test: NCI tumour cell line growth inhibition, 48 h
attribute_measured: TGI (µM)
Numbers only; they are read as µM.

Kindly note: A498 renal, O=[N+]([O-])c1ccc(NC(=S)N=Nc2c(O)[nH]c3ccc([N+](=O)[O-])cc23)cc1 , TGI value reported: 32.7

Kindly note: A498 renal, COc1cc(-c2cn(-c3ccc(Cl)c(Cl)c3)c(=O)n2C(C)=O)cc(OC)c1OC , TGI value reported: 32.1

Kindly note: A498 renal, Cc1nc2sccn2c1-c1csc(Nc2cccc(Cl)c2C)n1 , TGI value reported: 17.5

* * *

Can you tell me TGI for the items I'm about to list?
tested on: HCC-2998 colon; test: NCI tumour cell line growth inhibition, 48 h

Lab book: TGI of CN(C)c1ccc(/C=C(\NC(=O)c2ccccc2)c2nn(C)c(=O)o2)cc1 noted as > 100 µM

Lab book: TGI of COc1ccc(-c2c3c(n(C4OC(CO)C(O)C(O)C4O)c(=S)c2C#N)CCC3)cc1 (stereo not given) noted as > 100 µM

Lab book: TGI of O=C1C=CC(=O)N1n1c(-c2ccccc2)n[nH]c1=O noted as > 100 µM

Lab book: TGI of COc1cc(C(=O)Nc2cc3c(cc2Oc2cc(C)cc(C)c2)C(=O)N(C)[C@@H](CC(=O)N(C)O)C(=O)N3)c(Br)c(OC)c1OC noted as < 0.00333 µM

Lab book: TGI of CC(C)C(CC(=O)OCC(CO)OC(=O)CC(C(C)C)C(C)C)C(C)C (stereo not given) noted as 30.9 µM

Lab book: TGI of COC(=O)[C@@H]1CCCCC[C@H]2C(CO)=C(C)C(=O)C12 (stereo not given in full) noted as > 100 µM

Lab book: TGI of CCn1c(-c2nonc2N)nc2c(C#CC(C)(C)O)nc(OCCNC)cc21 noted as > 25 µM

Lab book: TGI of Fc1cc2[nH]ncc2c2c3c(c(-c4cn[nH]c4C(F)(F)F)nc12)C1CCC3C1 (stereo not given) noted as 5.57 µM

Lab book: TGI of COc1cc(C(=O)Oc2ccc3c(c2)OCO3)cc(OC)c1OC noted as > 100 µM

Lab book: TGI of COC(=O)[C@]12CCC(C)[C@H](C)[C@H]1C1=CCC3[C@@]4(C)CC[C@H](OC(C)=O)C(C)(C)C4CC[C@@]3(C)C1(C)C(O)C2 (stereo not given in full) noted as > 100 µM

Lab book: TGI of CN(C)CC1CCC/C1=N\O (stereo not given) noted as > 100 µM

Lab book: TGI of Cc1c(CN2CCN(C)CC2)c(CN2CCN(C)CC2)c(C)n1-c1ccc(Cl)cc1 noted as > 100 µM

Lab book: TGI of CCCCOc1ccc(OCCCCCCCCCC[N+](C)(C)C)cc1 noted as 6.28 µM

Lab book: TGI of COc1cc(-c2n/c(=C\c3c(O)[nH]c4ccc(Cl)cc34)cc3c2=Nc2ccccc2-3)ccc1F noted as 8.81 µM

Lab book: TGI of Nc1ccc(C(=O)CC(N)C(=O)O)cc1O (stereo not given) noted as > 100 µM

Lab book: TGI of CSC(SC)=C(C(=O)O)P(=O)(O)O noted as > 100 µM

Lab book: TGI of CC(C)c1cccc(C(C)C)c1NC(=O)/C(CC(=O)CC(c1ccccc1)c1c(O)c2ccccc2oc1=O)=N/O (stereo not given) noted as > 100 µM

Lab book: TGI of O=C1c2cc(Cl)ccc2-c2c1c1ccc([N+](=O)[O-])cc1c(=O)n2CCCBr noted as > 100 µM

Lab book: TGI of COc1ccc(Cn2c3c(cc(OS(=O)(=O)C(F)(F)F)c2=O)Cc2ccccc2-3)cc1 noted as 50 µM

Lab book: TGI of CN1CC[C@]2(C)c3ccc(O)cc3CC3CCCC1C32C (stereo not given in full) noted as > 100 µM
